Biological target: T1, CH2-4 constant domains of human IgE linked to a transmembrane protein, on 293 cells (human, UniProt P01854-1 104-428)
T1 construct: domain: CH2-4 constant domains; also called human IgE-expressing 293 cells
T1 sequence (P01854 other isoform, or with tags, fused parts or gaps): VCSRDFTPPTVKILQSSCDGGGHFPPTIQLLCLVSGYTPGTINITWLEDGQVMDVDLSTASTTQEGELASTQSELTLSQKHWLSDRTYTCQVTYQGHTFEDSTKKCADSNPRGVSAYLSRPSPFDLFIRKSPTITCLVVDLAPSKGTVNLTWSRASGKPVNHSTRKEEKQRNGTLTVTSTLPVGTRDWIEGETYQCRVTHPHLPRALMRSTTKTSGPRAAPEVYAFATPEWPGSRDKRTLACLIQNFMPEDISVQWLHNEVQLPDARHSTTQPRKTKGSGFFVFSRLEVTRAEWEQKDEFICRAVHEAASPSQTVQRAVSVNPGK
Assay: flow cytometry, 293 cells expressing human IgE CH2-4
Listing: Bmax of selected binders
Number in MFI, nothing else.

{"binder": "hzB10v10-NNT (Fc fusion, monomeric) VHH-Fc: EVQLVQSGGELVQAGGSLRLSCVASGLTFSSYNMGWLRQAPGKEREFVGMSGSSSTSTYYADSVKGRFTISRDNSKNTVYLQMNSLKPEDTAVYYCAARRLLSTYWSDRSWDFWGQGTQVTAKPGGPSVFLFPPKPKDTLMISRTPEVTCVVVDVSHEDPEVKFNWYVDGVEVHNAKTKPREEQYNSTYRVVSVLTVLHQDWLNGKEYKCKVSNKALPAPIEKTISKAKGQPREPQVYTLPPSRDELTKNQVNLTCLVKGFYPSDIAVEWESNGQPENNYKTTPPVLDSDGSFFLNSTLTVDKSRWQQGNVFSCSVMHEALHNHYTQKSLSLSPGK", "val": "2.76e+06"}

Field: next binder
Note Bmax for the binder shown: Anti-IgE sdAb B10 (parental B10 VHH, dimeric VHH-hIgG1-Fc xELL fusion) (Fc fusion) EVQLVQSGGELVQAGGSLRLSCVASGLTFSSYNMGWLRQAPGKEREFVGMSGSSSTSTYYADSVKGRFTISRDNSKNTVYLQMNSLKPEDTAVYYCAARRMLSTYWSDRSWDFWGQGTQVTVKPDKTHTCPPCPAPGGPSVFLFPPKPKDTLMISRTPEVTCVVVDVSHEDPEVKFNWYVDGVEVHNAKTKPREEQYNSTYRVVSVLTVLHQDWLNGKEYKCKVSNKALPAPIEKTISKAKGQPREPQVYTLPPSRDELTKNQVSLTCLVKGFYPSDIAVEWESNGQPENNYKTTPPVLDSDGSFFLYSKLTVDKSRWQQGNVFSCSVMHEALHNHYTQKSLSLSPGK
2.25e+06
